Reference for the values: the supplement of paper PMC7125110

Property: self-cleavage kobs at 40 uM GlcN6P; scope: individual variants
B1: glmS ribozyme (parent)
chain: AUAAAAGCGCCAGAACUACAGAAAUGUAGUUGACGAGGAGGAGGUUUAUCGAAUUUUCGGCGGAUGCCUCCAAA

Variants of: B1
Test: self-cleavage kobs at 40 uM GlcN6P; higher = faster cleavage; RNA array
Conditions: with glucosamine-6-phosphate
Fewer inactive variants are shown than the library holds.

Changes: C8U C11U A12C A48G G62A C67U
self-cleavage kobs at 40 uM GlcN6P: < 1e-05 s⁻¹
--
Changes: A33G G63A U65G
self-cleavage kobs at 40 uM GlcN6P: < 1e-05 s⁻¹
--
Changes: A52G C67G
self-cleavage kobs at 40 uM GlcN6P: 6.74e-05 s⁻¹
--
Changes: A39C A53G
self-cleavage kobs at 40 uM GlcN6P: 0.000151 s⁻¹
--
Changes: C10U G37A
self-cleavage kobs at 40 uM GlcN6P: < 1e-05 s⁻¹
--
Changes: A6G C58G C61U
self-cleavage kobs at 40 uM GlcN6P: < 1e-05 s⁻¹
--
Changes: G29A C68A
self-cleavage kobs at 40 uM GlcN6P: < 1e-05 s⁻¹
--
Changes: U45G U46C
self-cleavage kobs at 40 uM GlcN6P: 0.000173 s⁻¹
--
Changes: U47C G59U C70A
self-cleavage kobs at 40 uM GlcN6P: < 1e-05 s⁻¹
--
Changes: A6G C8G C10G A52U G60A
self-cleavage kobs at 40 uM GlcN6P: < 1e-05 s⁻¹
--
Changes: G29A G43C
self-cleavage kobs at 40 uM GlcN6P: < 1e-05 s⁻¹
